Reference source: patent US20140107109A1

measurement_target: Beta Secretase enzyme (BACE1) (Homo sapiens)
Sequence (P56817 46-501): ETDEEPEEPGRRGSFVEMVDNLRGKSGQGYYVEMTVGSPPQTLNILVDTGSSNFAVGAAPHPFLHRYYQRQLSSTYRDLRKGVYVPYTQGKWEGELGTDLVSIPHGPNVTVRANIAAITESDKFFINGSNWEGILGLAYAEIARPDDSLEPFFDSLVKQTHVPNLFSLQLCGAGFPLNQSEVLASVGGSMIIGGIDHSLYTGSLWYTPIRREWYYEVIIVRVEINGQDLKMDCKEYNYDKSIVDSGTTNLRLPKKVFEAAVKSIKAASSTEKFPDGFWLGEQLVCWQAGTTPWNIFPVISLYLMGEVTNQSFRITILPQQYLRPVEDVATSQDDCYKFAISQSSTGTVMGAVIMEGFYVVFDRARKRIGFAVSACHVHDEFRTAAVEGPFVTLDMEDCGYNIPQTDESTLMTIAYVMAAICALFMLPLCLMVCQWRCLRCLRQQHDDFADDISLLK
experiment: In vitro enzymatic BACE FRET assay
Format: biochemical
measurement_context: average IC50, enzyme assay; read-out: BACE1 FRET assay IC50
pIC50: −log10 of the molar value.
property_name: pIC50

Example results:
> print(dat)
                                   compound  property.name  assay.result
1  CC1(C)C(N)=N[C@](C)(c2cc(C(=O)Nc3ccc(C#N)cc3O)ccc2F)CS1(=O)=O          pIC50          5.64
2  CC1(C)C(N)=N[C@](C)(c2cc(Nc3nccc4nc(C(F)(F)F)cnc34)cnc2F)CS1(=O)=O          pIC50          7.80
3  C[C@@]1(c2cc(Br)ccc2F)CS(=O)(=O)[C@]2(C[C@@H](F)C2)C(N)=N1          pIC50          5.39
4  Cc1cc(Oc2ccc(F)c([C@]3(C)CS(=O)(=O)C(C)(C)C(N)=N3)c2)ncc1Cl          pIC50          5.57
5  CC1(C)C(N)=N[C@](CF)(c2cc(Nc3ncnc4cc(C#N)cnc34)ccc2F)CS1(=O)=O          pIC50          9.14
6  Cc1cc(OC(F)F)cnc1C(=O)Nc1ccc(F)c([C@@]2(C)N=C(N)C(C)(C)S(=O)(=O)C2F)c1 (stereo partly drawn)          pIC50          9.12

1: C=C(C)c1cc(Cl)cnc1C(=O)Nc1ccc(F)c([C@]2(C)CS(=O)(=O)C(C)(C)C(N)=N2)c1
2: COc1cccnc1Oc1ccc(F)c([C@]2(C)CS(=O)(=O)C(C)(C)C(N)=N2)c1
3: COCc1cc(Cl)cnc1C(=O)Nc1ccc(F)c([C@@]2(C)N=C(N)C(C)(C)S(=O)(=O)C2F)c1 (stereo partly drawn)
4: Cc1cc(C#N)cnc1Oc1ccc(F)c([C@]2(C)CS(=O)(=O)C(C)(C)C(N)=N2)c1
5: CCOc1cnc2c(Nc3ccc(F)c([C@]4(CF)CS(=O)(=O)C(C)(C)C(N)=N4)c3)ncc(F)c2c1
## Task Rank the 5 compounds: largest pIC50 first, smallest last. Reply with the labels, ordered as the question asks.
## Result 3, 5, 1, 2, 4
(3: 9.25, 5: 8.80, 1: 8.29, 2: 6.69, 4: 6.26)
